Data provenance: patent US20030199002A1

# ASSAY_INFO: Cell death assay (trypan blue exclusion) in SK-HEP-1 cells overexpressing hclk-2
# Assay type: cell-based, human
# TEST_PARAMETERS: human; SK-HEP-1 cells overexpressing hclk-2; concentration and time per Table 7: menadione 12 μM 24 hr, t-butyl hydroperoxide 40 μM 48 hr, hydroxyurea 0.6 mM 96 hr; means of triplicate; read-out: Cell viability (percentage of cells excluding trypan blue)
# Description: FIG. 11 illustrates the affect of hclk-2 overexpression on sensitivity to menadione, t-butyl hydroperoxide and hydroxyurea of SK-HEP-1 cells. […] Cell viability was expressed as the percentage of cells excluding trypan blue. […] To determine the occurrence of cell death, cells were seeded at 1×10^5 in 6-well dishes. The next day the cells were treated by γ-ray (20 Gy) and counted 72 hr later. […] Cell viability was measured by the trypan blue exclusion method.
RECORDED_ENDPOINT: viability (%)
Quick reminder: number only, in %, skip the unit.

Q: Which viability reading was recorded for the compound CC(C)(C)OO [t-butyl hydroperoxide, t-Butyl hydroperoxide] ?
Ans: 30
